Entries and their Anti-CD28 Fab signal in the presence of CD28 values follow.
Target: T1, Anti-CD28 Fab (SEQ ID NOs: 202, 203);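 also: coated wells pre-incubated with CD28 antigen or with blocking buffer only, then crude clonal phage supernatant added briefly, and retained phage read out via HRP-linked anti-M13 antibody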
T1 construct: biotinylated and captured on neutravidin coated plates in the phage ELISA
T1 sequence (VH, as listed by the source, chain 1 of 2): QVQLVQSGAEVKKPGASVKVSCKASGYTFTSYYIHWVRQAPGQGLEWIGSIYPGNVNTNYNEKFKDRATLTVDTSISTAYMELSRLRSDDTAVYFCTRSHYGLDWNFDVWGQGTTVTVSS
T1 sequence (VL, as listed by the source, chain 2 of 2): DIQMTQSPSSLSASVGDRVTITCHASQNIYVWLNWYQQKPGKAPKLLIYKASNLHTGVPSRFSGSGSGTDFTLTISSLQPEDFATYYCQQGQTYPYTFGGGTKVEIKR
Experiment: phage binding ELISA, Fab on plate, CD28 as competitor
Please give the numeric answer without any surrounding text.

Use these answered entries as a reference point.
TCSAGAHWTWPLCF [Phage-1044] : 0.06
MCSAGAMYPWPLCL [Phage-988] : 0.07

Provide measured Anti-CD28 Fab signal in the presence of CD28 value, entry: LCKPGVPNSWPTCL [Phage-984]
0.06

Provide measured Anti-CD28 Fab signal in the presence of CD28 value, entry: TCAAGAYWTWPACF [Phage-990]
0.09

Provide measured Anti-CD28 Fab signal in the presence of CD28 value, entry: TCSAGAHYPWPDCI [Phage-985]
0.07

Provide measured Anti-CD28 Fab signal in the presence of CD28 value, entry: TCAAGAMWVWPTCL [Phage-1052]
0.07

Provide measured Anti-CD28 Fab signal in the presence of CD28 value, entry: SCAAGLSYPWPDCL [Phage-1055]
0.07

Provide measured Anti-CD28 Fab signal in the presence of CD28 value, entry: TCSAGATYNWPWCF [Phage-1047]
0.05
